# assaySystem: arginase (Rattus norvegicus, UniProt P07824)
# Sequence (P07824 whole entry): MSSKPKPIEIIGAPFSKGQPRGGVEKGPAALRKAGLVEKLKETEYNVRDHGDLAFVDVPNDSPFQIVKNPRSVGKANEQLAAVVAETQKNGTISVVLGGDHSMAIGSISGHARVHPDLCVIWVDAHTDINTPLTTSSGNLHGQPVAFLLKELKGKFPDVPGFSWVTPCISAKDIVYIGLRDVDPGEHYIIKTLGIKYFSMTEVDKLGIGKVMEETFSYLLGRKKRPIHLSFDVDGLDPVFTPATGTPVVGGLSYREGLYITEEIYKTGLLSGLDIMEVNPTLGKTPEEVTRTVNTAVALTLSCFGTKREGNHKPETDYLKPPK
# testDescription: isothermal titration calorimetry
# Type: binding
# Design: made in house
# runConditions: 100 micromolar MnCl2, 50 millimolar bicine pH 8.5, 25° C.; read-out: Kd determined by titration calorimetry
measuredProperty: Kd (nM)
Reply numerically in nM, unit not repeated.

Qu. Answer with reported Kd of N[C@@H](CCCCB(O)O)C(=O)O [compound 7, 2(S)-amino-6-boronohexanoic acid]
Ans. 110
